Source of measurements: the Human Domainome abundance scans (Beltran et al. 2025)

B1: Retinoic acid receptor RXR-alpha, residues 132 to 208; numbered along this chain, P19793 (parent)
chain: KHICAICGDRSSGKHYGVYSCEGCKGFFKRTVRKDLTYTCRDNKDCLIDKRQRNRCQYCRYQKCLAMGMKREAVQEE

- Variants of: B1
- Run Description: abundance fitness (aPCA) (normalised: wild type 0, dead -1); higher = more abundant; growth selection in yeast, the domain comes from the species named
- Assay Conditions: Homo sapiens
Parameter threshold = -0.07. Response is Criterion met when abundance fitness meets or exceeds it, else Criterion not met.

Answered cases to consult:
{"Sequence": "KHICAICGDRSSGKHYGVYSCEGCKGFFKRTVRKDLTYTCRDNKDCLIIKRQRNRCQYCRYQKCLAMGMKREAVQEE [D49I]", "Discrete Label": "Criterion met"}
{"Sequence": "KHICAICGDRSSGKHYGVYSCEGCKGFFKRMVRKDLTYTCRDNKDCLIDKRQRNRCQYCRYQKCLAMGMKREAVQEE [T31M]", "Discrete Label": "Criterion met"}
{"Sequence": "KHICPICGDRSSGKHYGVYSCEGCKGFFKRTVRKDLTYTCRDNKDCLIDKRQRNRCQYCRYQKCLAMGMKREAVQEE [A5P]", "Discrete Label": "Criterion not met"}
{"Sequence": "KHICAITGDRSSGKHYGVYSCEGCKGFFKRTVRKDLTYTCRDNKDCLIDKRQRNRCQYCRYQKCLAMGMKREAVQEE [C7T]", "Discrete Label": "Criterion not met"}

Hello, I need to know if KHICAICGDRSSGKHYGVYSCIGCKGFFKRTVRKDLTYTCRDNKDCLIDKRQRNRCQYCRYQKCLAMGMKREAVQEE [E22I] has measured abundance fitness not below -0.07. Thanks! Criterion met

Please tell me: is the variant KHICAICGDRSSGKHYGVYSCEGCKGFFKRRVRKDLTYTCRDNKDCLIDKRQRNRCQYCRYQKCLAMGMKREAVQEE [T31R] at or over -0.07 in terms of abundance fitness? Criterion not met
